- targetDesc: LRRK2 (leucine-rich repeat kinase 2) (Homo sapiens (Human))
- assayInfo: Inhibitory effect on LRRK2 in vitro (LANCE kinase assay)
- Format: biochemical
- recordedConditions: Table 1, class symbols; read-out: LRRK2 inhibition rate (IC50)
pIC50: −log10 of the molar value.
readoutType: pIC50

Example compounds with recorded pIC50:
CCn1nc(Cl)c2cnc(Nc3cn(C4CCN(C(=O)N5CCOCC5)CC4)nc3Cl)nc21 [Compound 54] : > 8.00
CC(C)n1cc(Nc2ncc3c(Cl)cn(C)c3n2)c(Cl)n1 [Compound 3] : 7.00 to 8.00
CCn1nc(Cl)c2cnc(Nc3cnn(C4CCN(C5COC5)CC4)c3Cl)nc21 [Compound 45] : 7.00 to 8.00
CCn1cc(Cl)c2cnc(Nc3cnn(-c4ccc(Cl)cc4)c3Cl)nc21 [Compound 22] : 6.00 to 7.00
CCn1cc(Cl)c2cnc(Nc3cn(C4CN(S(C)(=O)=O)C4)nc3Cl)nc21 [Compound 40] : 7.00 to 8.00
CCn1nc(Cl)c2cnc(Nc3cn(C4CCN(C(=O)C(C)(C)C)CC4)nc3Cl)nc21 [Compound 53] : > 8.00
CCn1cc(Cl)c2cnc(Nc3cn(C4CCN(C)CC4)nc3Cl)nc21 [Compound 17] : 7.00 to 8.00
CCn1nc(Cl)c2cnc(Nc3cnn(C4CCN(S(C)(=O)=O)CC4)c3Cl)nc21 [Compound 62] : 7.00 to 8.00
CCn1cc(Cl)c2cnc(Nc3cn(C4CN(C(=O)C5CC5)C4)nc3Cl)nc21 [Compound 41] : 7.00 to 8.00
CCn1nc(Cl)c2cnc(Nc3cn(C4CCN(S(C)(=O)=O)CC4)nc3Cl)nc21 [Compound 55] : > 8.00

For the compound CC(C)n1cc(Nc2ncc3c(Cl)cn(C(C)C)c3n2)c(Cl)n1 [Compound 7] , the measured pIC50 on LRRK2 (leucine-rich repeat kinase 2) (Homo sapiens (Human)) was 7.00 to 8.00

For the compound Clc1cn(C2CC2)c2nc(Nc3cnn(C4CCN(C5COC5)CC4)c3Cl)ncc12 [Compound 29] , the measured pIC50 on LRRK2 (leucine-rich repeat kinase 2) (Homo sapiens (Human)) was 7.00 to 8.00

For the compound Cn1cc(Cl)c2cnc(Nc3cnn(C4CCN(C5COC5)CC4)c3Cl)nc21 [Compound 27] , the measured pIC50 on LRRK2 (leucine-rich repeat kinase 2) (Homo sapiens (Human)) was 7.00 to 8.00

---

- targetDesc: LRRK2 (leucine-rich repeat kinase 2) (Homo sapiens (Human), UniProt Q5S007)
- Sequence (Q5S007 whole entry): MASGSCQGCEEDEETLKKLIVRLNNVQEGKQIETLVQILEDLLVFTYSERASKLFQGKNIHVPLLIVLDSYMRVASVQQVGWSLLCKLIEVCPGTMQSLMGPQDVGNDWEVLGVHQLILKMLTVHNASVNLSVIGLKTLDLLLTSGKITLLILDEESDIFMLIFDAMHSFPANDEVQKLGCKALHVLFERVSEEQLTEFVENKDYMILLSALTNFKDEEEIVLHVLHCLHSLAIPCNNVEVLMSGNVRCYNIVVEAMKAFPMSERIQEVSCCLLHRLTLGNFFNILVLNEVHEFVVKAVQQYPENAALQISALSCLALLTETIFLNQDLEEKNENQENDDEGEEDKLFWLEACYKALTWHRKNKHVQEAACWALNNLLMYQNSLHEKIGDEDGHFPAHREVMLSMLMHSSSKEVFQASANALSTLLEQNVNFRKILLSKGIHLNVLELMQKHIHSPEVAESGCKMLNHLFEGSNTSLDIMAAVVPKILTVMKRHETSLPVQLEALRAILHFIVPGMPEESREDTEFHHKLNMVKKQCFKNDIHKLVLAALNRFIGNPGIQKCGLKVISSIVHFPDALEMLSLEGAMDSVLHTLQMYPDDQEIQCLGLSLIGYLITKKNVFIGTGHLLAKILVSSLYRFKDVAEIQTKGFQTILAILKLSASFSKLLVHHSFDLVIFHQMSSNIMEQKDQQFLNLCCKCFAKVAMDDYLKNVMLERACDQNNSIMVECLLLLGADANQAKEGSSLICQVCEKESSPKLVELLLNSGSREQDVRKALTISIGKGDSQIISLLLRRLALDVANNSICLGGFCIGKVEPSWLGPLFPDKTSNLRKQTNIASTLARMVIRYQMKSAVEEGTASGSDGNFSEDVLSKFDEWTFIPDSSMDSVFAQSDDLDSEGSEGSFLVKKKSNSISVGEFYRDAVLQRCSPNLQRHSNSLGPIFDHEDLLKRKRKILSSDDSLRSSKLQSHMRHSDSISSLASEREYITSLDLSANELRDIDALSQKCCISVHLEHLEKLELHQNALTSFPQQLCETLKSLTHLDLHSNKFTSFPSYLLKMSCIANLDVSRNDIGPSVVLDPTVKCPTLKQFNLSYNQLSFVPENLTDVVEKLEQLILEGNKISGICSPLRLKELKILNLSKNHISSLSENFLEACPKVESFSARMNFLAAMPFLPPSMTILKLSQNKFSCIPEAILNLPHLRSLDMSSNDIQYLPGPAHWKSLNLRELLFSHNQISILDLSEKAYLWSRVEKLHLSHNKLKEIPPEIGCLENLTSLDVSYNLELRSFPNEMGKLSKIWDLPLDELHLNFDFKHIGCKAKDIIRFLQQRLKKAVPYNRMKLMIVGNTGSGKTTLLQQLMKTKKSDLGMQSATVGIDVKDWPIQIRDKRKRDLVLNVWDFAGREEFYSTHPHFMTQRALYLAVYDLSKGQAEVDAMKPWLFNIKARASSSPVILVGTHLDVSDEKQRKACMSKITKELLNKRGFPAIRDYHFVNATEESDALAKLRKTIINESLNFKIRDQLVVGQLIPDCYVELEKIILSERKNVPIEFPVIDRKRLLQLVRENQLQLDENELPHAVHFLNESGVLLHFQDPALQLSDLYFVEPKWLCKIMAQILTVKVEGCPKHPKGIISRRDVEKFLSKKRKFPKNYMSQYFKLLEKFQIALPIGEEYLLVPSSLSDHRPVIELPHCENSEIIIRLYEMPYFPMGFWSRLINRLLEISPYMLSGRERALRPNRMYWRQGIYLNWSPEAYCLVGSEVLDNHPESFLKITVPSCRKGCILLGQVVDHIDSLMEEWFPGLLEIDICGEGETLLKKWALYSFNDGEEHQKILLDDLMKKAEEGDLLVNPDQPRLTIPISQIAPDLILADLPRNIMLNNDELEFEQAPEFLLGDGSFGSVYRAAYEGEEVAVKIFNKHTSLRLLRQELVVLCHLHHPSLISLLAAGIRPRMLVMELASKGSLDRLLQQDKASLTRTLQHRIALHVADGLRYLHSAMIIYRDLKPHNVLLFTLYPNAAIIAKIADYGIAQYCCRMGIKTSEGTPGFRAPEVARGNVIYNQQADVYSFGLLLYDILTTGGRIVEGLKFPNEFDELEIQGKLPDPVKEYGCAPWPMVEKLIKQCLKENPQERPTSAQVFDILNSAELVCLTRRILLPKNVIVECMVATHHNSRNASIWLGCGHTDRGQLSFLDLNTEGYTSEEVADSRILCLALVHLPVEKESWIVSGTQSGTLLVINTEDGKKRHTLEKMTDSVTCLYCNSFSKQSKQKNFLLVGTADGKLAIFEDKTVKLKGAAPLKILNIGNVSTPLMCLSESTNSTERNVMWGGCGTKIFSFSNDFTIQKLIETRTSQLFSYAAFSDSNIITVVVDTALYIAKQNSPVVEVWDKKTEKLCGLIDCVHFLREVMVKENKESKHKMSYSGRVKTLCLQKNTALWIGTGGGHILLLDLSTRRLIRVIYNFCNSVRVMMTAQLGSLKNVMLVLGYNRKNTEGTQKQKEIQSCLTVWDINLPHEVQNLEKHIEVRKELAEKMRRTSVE
- assayInfo: Inhibitory effect on LRRK2 in vitro (LANCE kinase assay)
- Format: biochemical
- recordedConditions: Table 1, class symbols; read-out: LRRK2 inhibition rate (IC50)
# IC50 listing for each entry below

CCn1cc(Cl)c2cnc(Nc3cn(C4CCN(C(=O)C(C)(C)C)CC4)nc3Cl)nc21 : < 10 nM
CS(=O)(=O)N1CCC(n2cc(Nc3ncc4c(Cl)cn(C5CC5)c4n3)c(Cl)n2)CC1 : < 10 nM
Clc1nn(C2CC2)cc1Nc1ncc2c(Cl)cn(C3CC3)c2n1 : 10 to 100 nM
CCn1nc(Cl)c2cnc(Nc3cnn(C4CN(C5COC5)C4)c3Cl)nc21 : 10 to 100 nM

Please look at the following compound next.
Entry `CCn1nc(Cl)c2cnc(Nc3cn(C4CCN(C(=O)C(F)(F)F)CC4)nc3Cl)nc21` , IC50 reported as 10 to 100 nM

---

- targetDesc: UniProtKB Q5S007
- assayInfo: Inhibitory effect on LRRK2 in vitro (LANCE kinase assay)
- Type: biochemical
- recordedConditions: purified LRRK2, Table 6; read-out: IC50
pIC50: −log10 of the molar value.
readoutType: pIC50

Example molecules with recorded pIC50:
CCn1cc(Cl)c2cnc(Nc3cn(C4CCN(S(=O)(=O)C5CC5)CC4)nc3Cl)nc21 [Compound 35] : 8.18
COc1cc(C(=O)N2CCC(N3CCN(C)CC3)CC2)ccc1Nc1ncc2c(n1)N(C)c1ccccc1C(=O)N2C [LRRK2-IN-1, reference compound] : 8.09
CS(=O)(=O)N1CCC(n2cc(Nc3ncc4c(Cl)nn(C5CC5)c4n3)c(Cl)n2)CC1 [Compound 46] : 8.10
CCn1cc(Cl)c2cnc(Nc3cn(C4CCN(C(=O)C(C)(C)C)CC4)nc3Cl)nc21 [Compound 33] : 8.22
CCn1nc(Cl)c2cnc(Nc3cn(C4CCCN(S(C)(=O)=O)CC4)nc3Cl)nc21 (centres unmarked) [Compound 51] : 8.32
CCn1cc(Cl)c2cnc(Nc3cn(C4CCN(S(C)(=O)=O)CC4)nc3Cl)nc21 [Compound 25] : 8.18

P. CCn1nc(Cl)c2cnc(Nc3cn(C4CCCN(C(=O)C5CC5)CC4)nc3Cl)nc21 (centres unmarked) [Compound 52]
Q. CS(=O)(=O)N1CCC(n2cc(Nc3ncc4c(Cl)cn(C5CC5)c4n3)c(Cl)n2)CC1 [Compound 30]
Problem: Given the entries P and Q , determine which has the lower reported pIC50. Mark your selection by writing its label.
P
(P: 8.25, Q: 8.69)

---

- targetDesc: LRRK2 (leucine-rich repeat kinase 2) (Homo sapiens (Human), UniProt Q5S007)
- assayInfo: Inhibitory effect on LRRK2 in vitro (LANCE kinase assay)
- Assay type: biochemical
- recordedConditions: purified LRRK2, Table 6; read-out: IC50
- Description: The inhibitory effect of Compounds 1 to 62 on LRRK2 (leucine-rich repeat kinase 2) in vitro was measured. In the analysis of the results, IC50 values were calculated for a quantitative comparison of the in vitro activity. […]
readoutType: IC50 (nM)

Example compounds with recorded IC50:
CCn1cc(Cl)c2cnc(Nc3cn(C4CCN(C(=O)N5CCOCC5)CC4)nc3Cl)nc21 : 4.66
CCn1nc(Cl)c2cnc(Nc3cn(C4CCN(C(C)=O)CC4)nc3Cl)nc21 : 5.92

a. CCn1nc(Cl)c2cnc(Nc3cn(C4CCN(S(=O)(=O)C5CC5)CC4)nc3Cl)nc21
b. CCn1nc(Cl)c2cnc(Nc3cn(C4CCN(S(C)(=O)=O)CC4)nc3Cl)nc21
Problem: Given the entries a and b , determine which has the lower reported IC50. Mark your selection by writing its label.
b
(b: 4.49 nM, a: 6.48 nM)

---

- targetDesc: UniProt:Q5S007
- assayInfo: Inhibitory effect on LRRK2 in vitro (LANCE kinase assay)
- Type: biochemical
- recordedConditions: Table 1, class symbols; read-out: LRRK2 inhibition rate (IC50)
pIC50: −log10 of the molar value.
readoutType: pIC50

Cn1cc(Cl)c2cnc(Nc3cn(C4CCOCC4)nc3C(F)(F)F)nc21 [Compound 4] : 6.00 to 7.00
CCn1cc(Cl)c2cnc(Nc3cn(CC4CC4)nc3Cl)nc21 [Compound 13] : 7.00 to 8.00
COCCn1cc(Nc2ncc3c(Cl)cn(C)c3n2)c(C(F)(F)F)n1 [Compound 10] : 6.00 to 7.00

Entry CCn1cc(Cl)c2cnc(Nc3cn(C4CCN(C(=O)N5CCOCC5)CC4)nc3Cl)nc21 [Compound 31] , pIC50 reported as > 8.00

Entry CCn1cc(Cl)c2cnc(Nc3cn(C4CCN(C(=O)C(C)C)CC4)nc3Cl)nc21 [Compound 26] , pIC50 reported as 7.00 to 8.00

Entry CCn1nc(Cl)c2cnc(Nc3cn(C4CCN(C(=O)C5CC5)CC4)nc3Cl)nc21 [Compound 57] , pIC50 reported as > 8.00

Entry CS(=O)(=O)N1CCC(n2cc(Nc3ncc4c(Cl)nn(C5CC5)c4n3)c(Cl)n2)CC1 [Compound 46] , pIC50 reported as > 8.00

Entry CCn1nc(Cl)c2cnc(Nc3c(Cl)nn(C4CCN(C(=O)C5CC5)CC4)c3C)nc21 [Compound 56] , pIC50 reported as 6.00 to 7.00

Entry CCn1cc(Cl)c2cnc(Nc3cn(C4CCN(S(=O)(=O)C5CC5)CC4)nc3Cl)nc21 [Compound 35] , pIC50 reported as > 8.00

Entry CCn1cc(Cl)c2cnc(Nc3cn(CCOC)nc3Cl)nc21 [Compound 12] , pIC50 reported as 7.00 to 8.00

Entry CCn1nc(Cl)c2cnc(Nc3cn(C4CCN(C(C)=O)CC4)nc3Cl)nc21 [Compound 58] , pIC50 reported as > 8.00

Entry CCn1cc(Cl)c2cnc(Nc3cnn(C4COC4)c3Cl)nc21 [Compound 16] , pIC50 reported as 7.00 to 8.00

---

# IC50 listing for each entry below
- targetDesc: LRRK2 (leucine-rich repeat kinase 2) (Homo sapiens (Human), UniProt Q5S007)
- assayInfo: Inhibitory effect on LRRK2 in vitro (LANCE kinase assay)
- Assay type: biochemical
- recordedConditions: Table 1, class symbols; read-out: LRRK2 inhibition rate (IC50)

For the compound `Cn1ncc(Nc2ncc3c(Cl)cn(C)c3n2)c1Cl` , the measured IC50 on LRRK2 (leucine-rich repeat kinase 2) (Homo sapiens (Human), UniProt Q5S007) was 10 to 100 nM

For the compound `CCn1cc(Cl)c2cnc(Nc3cn(C(C)C)nc3Cl)nc21` , the measured IC50 on LRRK2 (leucine-rich repeat kinase 2) (Homo sapiens (Human), UniProt Q5S007) was 10 to 100 nM

For the compound CCn1nc(Cl)c2cnc(Nc3cn(C4CCCN(C(=O)C5CC5)CC4)nc3Cl)nc21 (centres unmarked) , the measured IC50 on LRRK2 (leucine-rich repeat kinase 2) (Homo sapiens (Human), UniProt Q5S007) was < 10 nM

For the compound `CCn1cc(Cl)c2cnc(Nc3cn([C@H]4CCN(S(C)(=O)=O)C4)nc3Cl)nc21` , the measured IC50 on LRRK2 (leucine-rich repeat kinase 2) (Homo sapiens (Human), UniProt Q5S007) was 10 to 100 nM

For the compound `Cn1ncc(Nc2ncc3c(C(F)(F)F)cn(C)c3n2)c1Cl` , the measured IC50 on LRRK2 (leucine-rich repeat kinase 2) (Homo sapiens (Human), UniProt Q5S007) was 100 to 1000 nM
